# Target: T1, human neuropeptide Y2 receptor (human, UniProt P49146 1-381)
# T1 sequence (looked up): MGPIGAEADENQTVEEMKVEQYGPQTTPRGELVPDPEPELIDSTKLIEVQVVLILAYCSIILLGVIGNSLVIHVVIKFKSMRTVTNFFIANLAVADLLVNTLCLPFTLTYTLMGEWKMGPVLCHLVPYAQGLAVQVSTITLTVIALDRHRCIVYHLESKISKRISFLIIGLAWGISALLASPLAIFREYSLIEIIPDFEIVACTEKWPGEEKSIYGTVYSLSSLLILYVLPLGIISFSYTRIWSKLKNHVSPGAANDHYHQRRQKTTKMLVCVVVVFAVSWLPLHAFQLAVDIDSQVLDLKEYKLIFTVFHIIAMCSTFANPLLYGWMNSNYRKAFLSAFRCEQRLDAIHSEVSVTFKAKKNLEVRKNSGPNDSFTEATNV
# Procedure details: cell-based or functional assay
Non-standard residues stand in square brackets, D forms with d. No end group written: not given here. Aib = CC(C)(N)C(=O)O
Measurement type: EC50 CreLuc hNPY2R 100% hP (nM)
Numbers only, in nM.

// known answers, use as guide
Y[Aib]EGTFTSDYSI[Aib]LEKQAQ[Aib]EFVQWLIKGGPSEGASLRHYYNWLTRQRY-NH2 (not fully specified (residue 28)) [Compound 164]
50.1
YXEGTFTSDYSIXLEKQAQXAFVEWLIKGGPSSGASLRHYYNWXTRQRY (Aib at 2, 13, 20; Tle at 44; K28 side chain: C20DA-gGlu-gGlu-gGlu-gGlu-gGlu-gGlu-eLys; C-terminal NH2) [Compound 137]
93

Consider the additional binder presented here.
Request the reported EC50 CreLuc hNPY2R 100% hP associated with YXEGTFTSDYSIXLEKQAQXAFVEWLIKGGPSSPASLRHYYNWLTRQRY (Aib at 2, 13, 20; K28 side chain: C20DA-gGlu-gGlu-gGlu-gGlu-gGlu-gGlu-eLys; C-terminal NH2) [Compound 95]
56.9

All figures here come from patent US20240247080A1.
